- TEST_SYSTEM: Proteasome subunit beta (Trypanosoma cruzi) (UniProt O96673)
- Sequence (O96673 as listed by the source): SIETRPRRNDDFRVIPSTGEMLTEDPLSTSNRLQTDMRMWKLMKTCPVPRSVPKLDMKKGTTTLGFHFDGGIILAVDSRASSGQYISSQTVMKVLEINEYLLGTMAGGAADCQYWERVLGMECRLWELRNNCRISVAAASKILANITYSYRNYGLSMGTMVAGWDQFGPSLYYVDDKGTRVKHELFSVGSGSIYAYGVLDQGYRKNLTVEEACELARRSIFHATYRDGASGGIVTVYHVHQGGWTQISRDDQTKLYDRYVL
- ASSAY: Trypanosoma cruzi proteasome chymotrypsin-like activity (TcProtChymo) assay. Note: in the data most compounds retested in dose-response had high values.
- Format: functional
- Set-up: scale not given: direction of the effect not stated beside the values
- CONDITION_NOTES: 9.37 µM
Quick reference for Percent Effect among some molecules
Number only, in %; omit the unit.

Example cases with answers are listed next.
>  <MOLECULE>
COc1cccc(CNC(=O)C(c2cccc(F)c2)N2CCOCC2)c1 (centres undefined)

>  <UNIT_TAG>
%

>  <Percent Effect>
4.12

$$$$
>  <MOLECULE>
CCC1(CC)Cc2ccccc2-c2nc(NCCO)[nH]c(=O)c21

>  <UNIT_TAG>
%

>  <Percent Effect>
26.4

$$$$
>  <MOLECULE>
Cc1ncc(CNC(=O)Nc2cc(C(F)(F)F)c[nH]c2=O)s1

>  <UNIT_TAG>
%

>  <Percent Effect>
18.2

$$$$
>  <MOLECULE>
Cc1nc(CN2C(=O)C[C@@H]3[C@@H]2CCN3C(=O)C2CCOCC2)cs1

>  <UNIT_TAG>
%

>  <Percent Effect>
8.82

$$$$
>  <MOLECULE>
CC1(NC(=O)Cc2csc(C(C)(C)C)n2)CCS(=O)(=O)C1 (centres undefined)

>  <UNIT_TAG>
%

>  <Percent Effect>
13.7

$$$$
>  <MOLECULE>
CCCc1n[nH]c(C2CN(C(=O)c3ccco3)CCO2)n1 (centres undefined)

>  <UNIT_TAG>
%

>  <Percent Effect>
8.71

$$$$
>  <MOLECULE>
c1ccc(-c2cnc(CN3CCn4c(nnc4C4CC4)C3)o2)cc1

>  <UNIT_TAG>
%

>  <Percent Effect>
10

$$$$
>  <MOLECULE>
Cc1oc(C)c(C(=O)NCc2ccccn2)c1C

>  <UNIT_TAG>
%

>  <Percent Effect>
15.7

$$$$

Okay, next one:
Query string: Need Percent Effect of c1cnn(CC2CCCN2c2ncnc3sccc23)c1 (centres undefined) , thanks.
Result string: -1.44

====

- TEST_SYSTEM: Protein translocase subunit SecA (Escherichia coli (strain K12)) (UniProt P10408)
- Sequence (P10408 whole entry): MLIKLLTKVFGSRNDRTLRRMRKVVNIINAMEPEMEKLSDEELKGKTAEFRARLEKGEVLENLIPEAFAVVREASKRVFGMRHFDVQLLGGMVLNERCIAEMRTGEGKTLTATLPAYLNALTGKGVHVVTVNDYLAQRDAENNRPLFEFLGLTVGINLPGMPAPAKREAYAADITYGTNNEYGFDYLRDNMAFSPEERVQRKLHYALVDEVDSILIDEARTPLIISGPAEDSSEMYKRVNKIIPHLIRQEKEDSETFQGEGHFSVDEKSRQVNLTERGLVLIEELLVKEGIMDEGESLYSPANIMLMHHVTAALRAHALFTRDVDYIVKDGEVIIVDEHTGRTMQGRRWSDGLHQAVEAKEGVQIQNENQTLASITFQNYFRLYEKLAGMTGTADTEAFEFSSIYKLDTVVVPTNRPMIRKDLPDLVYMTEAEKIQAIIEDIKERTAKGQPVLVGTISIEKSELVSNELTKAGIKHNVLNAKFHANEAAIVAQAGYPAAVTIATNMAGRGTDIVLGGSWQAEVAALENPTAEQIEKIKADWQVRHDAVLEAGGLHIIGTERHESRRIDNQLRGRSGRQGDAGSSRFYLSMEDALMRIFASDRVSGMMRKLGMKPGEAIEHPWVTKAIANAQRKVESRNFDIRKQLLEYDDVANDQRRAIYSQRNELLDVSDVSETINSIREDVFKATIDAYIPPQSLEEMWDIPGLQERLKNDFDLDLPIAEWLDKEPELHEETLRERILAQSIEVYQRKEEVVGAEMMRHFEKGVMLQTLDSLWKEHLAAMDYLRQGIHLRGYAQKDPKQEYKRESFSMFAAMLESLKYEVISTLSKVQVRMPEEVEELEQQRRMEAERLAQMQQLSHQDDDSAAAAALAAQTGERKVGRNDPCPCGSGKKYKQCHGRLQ
- ASSAY: Assay to Identify E. coli SecA ATPase Inhibitors
- Format: functional
- Design: scale not given: direction of the effect not stated beside the values
- CONDITION_NOTES: 30 µM
Potency and affinity values are given separately.
Below, each entry is listed alongside its reported Percent Effect.
The answer is to be given in %; state only the numeric part.

>  <MOLECULE>
COCC(=O)N1CC[C@@H]2O[C@@H](COCc3csc(C)n3)CC[C@@H]21

>  <Percent Effect (%)>
-2.35

$$$$

Query string: Requested read-out: Percent Effect. Entry: Cc1n[nH]c(C2CN(C(=O)c3cc(C4CC4)[nH]n3)CCO2)n1 (centres undefined)
Result string: -3.77

Query string: Query (molecule): NC(=O)c1ccc2c(c1)nc1n2CCN(Cc2ccco2)C1 ; field requested: Percent Effect
Result string: -3.62

Query string: What value of measured Percent Effect is listed for CC(C(N)=O)S(=O)(=O)Cc1cc(Cl)c2c(c1)OCO2 (centres undefined) ?
Result string: -0.171

Query string: What does the data say about its Percent Effect? Entry: CC(C)n1cnc2c1C(C(=O)NCCC#N)N(Cc1ccccc1)CC2 (centres undefined)
Result string: -5.9

Query string: Using the record for CO[C@@H]1CCN(Cc2cnn(C)c2)[C@@H]2CN(Cc3ccco3)C[C@@H]21 , report its Percent Effect.
Result string: -5.25

====

The molecules listed here are annotated with their Percent Effect.
- TEST_SYSTEM: AMP-activated protein kinase, AMPK (Homo sapiens) (UniProt P54646+O43741+P54619+Q9UGJ0+Q9Y478+Q13131+Q9UGI9)
- ASSAY: AMP-dependent Kinase enzyme assay. An in vitro enzyme assay that detects ADP turnover that is directly proportional to AMPK activity. This uses naive AMPK that is activated during the assay with MK-8722
- Format: functional
- Design: scale not given: direction of the effect not stated beside the values
- CONDITION_NOTES: 30 µM
Please give a number only; it is taken to be in %.

Here is how some molecules turned out for Percent Effect.
>  <MOLECULE>
Cc1noc(C)c1C(=O)NCC(c1ccc(F)cc1)N(C)C (configuration not stated)

>  <UNIT_TAG>
%

>  <REPORTED>
1.69

$$$$
>  <MOLECULE>
N#CCCN(C(=O)CN1CCCC1Cc1ccccc1)c1ccccc1 (configuration not stated)

>  <UNIT_TAG>
%

>  <REPORTED>
-1.32

$$$$
>  <MOLECULE>
Cc1cnn(CC2CN(c3ncnc4ccsc34)CCO2)c1 (configuration not stated)

>  <UNIT_TAG>
%

>  <REPORTED>
4.84

$$$$
>  <MOLECULE>
CCn1c(CN2CCC(O)(C(=O)OC)CC2)nc2c(F)cccc21

>  <UNIT_TAG>
%

>  <REPORTED>
-3.77

$$$$
>  <MOLECULE>
COc1ccccc1CC1CCCN(CC(N)=O)C1 (configuration not stated)

>  <UNIT_TAG>
%

>  <REPORTED>
0.0164

$$$$

Query string: Name the recorded Percent Effect for CCCc1nnsc1C(=O)NCC1CCN(c2ccccn2)CC1 .
Result string: -5.48

Query string: Item under review: Cc1ccc(C(=O)N2CCCC(C(=O)N3CCCCC3)C2)c(O)c1 (configuration not stated) . Reported Percent Effect?
Result string: -4.33

Query string: I have this molecule here, O=C(NCCCN1CCCC1=O)Nc1ccc(Br)cc1Cl , and I need its recorded Percent Effect.
Result string: 3.31

Query string: Given the molecule CC(C)(C)NC(=O)CNC(=O)CCc1ccccc1Br , what is its reported Percent Effect?
Result string: -5.91

Query string: I'd like to know its Percent Effect. The molecule in question is Cc1nc[nH]c1CN(C)CC1CCCN(CCc2ccc(Cl)cc2)C1 (configuration not stated)
Result string: 4.19

Query string: Fill in the blank: the reported Percent Effect of Fc1ccc(CCN2CCC(c3nnc(-c4cccnc4)o3)CC2)cc1 is ____.
Result string: 6.27

Query string: Which Percent Effect reading was recorded for the molecule COc1ccc(C)cc1S(=O)(=O)NCC(c1cccn1C)N(C)C (configuration not stated) ?
Result string: -12.1

====

- TEST_SYSTEM: AMP-activated protein kinase, AMPK (Homo sapiens) (UniProt P54646+O43741+P54619+Q9UGJ0+Q9Y478+Q13131+Q9UGI9)
- ASSAY: AMP-dependent Kinase enzyme assay. An in vitro enzyme assay that detects ADP turnover that is directly proportional to AMPK activity. This uses naive AMPK that is activated during the assay with MK-8722
- Format: functional
- Design: scale not given: direction of the effect not stated beside the values
- CONDITION_NOTES: 30 µM
Recorded Percent Effect for the following compounds
Provide the reading as a plain figure in %.

Example entries begin here.
>  <COMPOUND>
CCc1ncc2c(n1)CN(CC(=O)NCCOc1ccccc1)CC2

>  <UNIT_TAG>
%

>  <Percent Effect>
-23.5

$$$$
>  <COMPOUND>
CCOC(=O)NC(CNC(=O)c1ncccn1)CC(C)C (stereo unspecified)

>  <UNIT_TAG>
%

>  <Percent Effect>
-1.89

$$$$
>  <COMPOUND>
COc1cc(C2CC(=O)Oc3cc(C)[nH]c(=O)c32)ccc1OC(F)F (stereo unspecified)

>  <UNIT_TAG>
%

>  <Percent Effect>
-1.47

$$$$

Query string: // Percent Effect lookup, key: C1CC(NCc2nc(C3CC3)no2)CN(Cc2noc(C3CC3)n2)C1 (stereo unspecified)
Result string: -2.39

Query string: I am curious: what Percent Effect value has been reported for Cn1c(CN2CCOCC2)nnc1C1CCN(C(=O)C2CCCC2)CC1 ?
Result string: 1.53

Query string: Can you share its Percent Effect? I mean this compound: COc1ccc2cc(C3CN(C(=O)C4CCOCC4)CCO3)ccc2c1 (stereo unspecified)
Result string: 1.82

====

Collected Percent Effect values appear next to each entry.
- TEST_SYSTEM: Sialic acid-binding Ig-like lectin 9 (Homo sapiens) (UniProt Q9Y336)
- Sequence (Q9Y336 whole entry): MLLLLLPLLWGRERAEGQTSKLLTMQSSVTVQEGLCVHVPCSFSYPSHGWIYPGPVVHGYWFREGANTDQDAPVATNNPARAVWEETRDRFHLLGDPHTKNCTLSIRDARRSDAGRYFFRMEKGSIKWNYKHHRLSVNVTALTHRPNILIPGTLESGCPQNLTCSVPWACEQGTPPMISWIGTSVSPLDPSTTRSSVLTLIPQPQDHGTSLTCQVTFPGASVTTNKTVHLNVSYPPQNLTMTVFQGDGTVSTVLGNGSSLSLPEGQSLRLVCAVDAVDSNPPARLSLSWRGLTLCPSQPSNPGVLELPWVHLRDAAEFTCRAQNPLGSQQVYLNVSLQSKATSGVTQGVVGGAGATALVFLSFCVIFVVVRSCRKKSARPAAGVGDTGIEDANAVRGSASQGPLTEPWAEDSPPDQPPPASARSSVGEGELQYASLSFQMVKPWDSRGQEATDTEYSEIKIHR
- ASSAY: Hs-Siglec9 ALPHAscreen SOP 20170721
- Design: scale not given: direction of the effect not stated beside the values
- CONDITION_NOTES: 10 µM
Value expressed in %; do not type the unit.

The cases that follow already have their Percent Effect on record.
>  <MOLECULE>
O=C(c1cncc(N2CCC(O)(CO)CC2)n1)N1CCCC1

>  <Percent Effect [%]>
8.86

$$$$
>  <MOLECULE>
CS(=O)(=O)N1CCC(C(=O)NC(Cc2ccsc2)c2nccs2)CC1 (stereo unspecified)

>  <Percent Effect [%]>
-1.37

$$$$

Query string: Need Percent Effect of CN(Cc1cnn(C)c1)C(=O)c1ccc(=O)n(C)n1 , thanks.
Result string: -2.3

Query string: # input molecule: CNc1nc2c(s1)C(c1c(Cl)cccc1Cl)CC(=O)N2 (stereo unspecified) ; wanted: its Percent Effect
Result string: 4.3

Query string: Query: Percent Effect; subject: C=C(C)COCCNC(=O)C1CCCN1C(C)=O (stereo unspecified)
Result string: 2.93

Query string: Look up Percent Effect for this molecule: Cn1ccc(C(=O)N2CCC(Cc3cccc4cccnc34)C2)n1 (stereo unspecified)
Result string: 3.85

Values compiled from ChEMBL document CHEMBL3988442.
